Data provenance: patent US20100216779A1

- testTarget: IR (NIH-3T3 cells over expressing human IGF-1R or IR) (Homo sapiens)
- Construct: expressed in transfected cells; host or cells: NIH-3T3 (mouse fibroblasts)
- Sequence (P06213 28-1382): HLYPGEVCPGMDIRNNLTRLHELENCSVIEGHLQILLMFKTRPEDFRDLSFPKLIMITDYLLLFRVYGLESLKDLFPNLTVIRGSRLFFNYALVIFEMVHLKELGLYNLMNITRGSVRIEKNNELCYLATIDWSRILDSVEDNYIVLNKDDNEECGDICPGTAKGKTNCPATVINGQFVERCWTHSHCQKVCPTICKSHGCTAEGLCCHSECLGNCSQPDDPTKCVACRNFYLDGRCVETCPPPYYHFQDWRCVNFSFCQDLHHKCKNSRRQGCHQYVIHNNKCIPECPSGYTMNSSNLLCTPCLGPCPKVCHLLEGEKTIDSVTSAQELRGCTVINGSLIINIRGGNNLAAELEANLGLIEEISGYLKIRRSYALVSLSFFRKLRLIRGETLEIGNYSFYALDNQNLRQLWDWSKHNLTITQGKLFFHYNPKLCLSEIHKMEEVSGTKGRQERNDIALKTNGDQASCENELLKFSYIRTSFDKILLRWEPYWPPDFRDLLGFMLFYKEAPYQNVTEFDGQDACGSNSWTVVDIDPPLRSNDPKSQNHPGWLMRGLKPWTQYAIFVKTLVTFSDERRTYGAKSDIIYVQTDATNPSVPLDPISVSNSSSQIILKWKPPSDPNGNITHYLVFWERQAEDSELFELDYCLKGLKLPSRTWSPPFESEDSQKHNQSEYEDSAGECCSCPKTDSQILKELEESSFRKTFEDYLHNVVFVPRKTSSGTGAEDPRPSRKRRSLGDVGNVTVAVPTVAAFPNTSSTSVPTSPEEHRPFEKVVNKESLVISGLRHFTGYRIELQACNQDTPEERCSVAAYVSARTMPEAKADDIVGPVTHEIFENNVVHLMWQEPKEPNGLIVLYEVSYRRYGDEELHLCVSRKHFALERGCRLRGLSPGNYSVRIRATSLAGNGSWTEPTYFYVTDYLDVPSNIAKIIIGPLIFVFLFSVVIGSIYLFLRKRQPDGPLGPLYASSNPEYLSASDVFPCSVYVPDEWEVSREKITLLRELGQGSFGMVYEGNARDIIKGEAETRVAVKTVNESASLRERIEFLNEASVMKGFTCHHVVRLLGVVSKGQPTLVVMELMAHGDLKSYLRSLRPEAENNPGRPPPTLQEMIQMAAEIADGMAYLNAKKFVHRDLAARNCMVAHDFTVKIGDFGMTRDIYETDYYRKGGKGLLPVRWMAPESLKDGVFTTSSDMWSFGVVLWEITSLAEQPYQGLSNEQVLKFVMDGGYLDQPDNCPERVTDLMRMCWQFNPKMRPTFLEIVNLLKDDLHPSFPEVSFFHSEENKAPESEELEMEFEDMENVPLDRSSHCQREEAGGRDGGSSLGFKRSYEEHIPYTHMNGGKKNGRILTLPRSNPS
- assaySummary: IR cellular autophosphorylation (DELFIA)
- Type: cell-based
- protocolConditions: NIH-3T3 cells over expressing IR, insulin stimulated
Kindly state IC50 for each of the entries shown.

These solved cases illustrate the format of a correct answer.
>>> print(df.to_string())
                                   molecule  measuredattribute  assayvalue
0  COc1cc(N2CCC(N3CCN(S(C)(=O)=O)CC3)CC2)ccc1Nc1nccc(-c2c(-c3cccc(C(=O)Nc4c(F)cccc4F)c3)nc3cc(F)ccn23)n1 [Example 196]               IC50    < 100 nM
1  CCOc1cc(N2CCC(CCS(C)(=O)=O)CC2)c(C)cc1Nc1nccc(-c2c(-c3ccc(OCC)c(C(=O)Nc4c(F)cccc4F)c3)nc3ccccn23)n1 [Example 217]               IC50    < 100 nM
2  CCOc1ccc(-c2nc3ccccn3c2-c2ccnc(Nc3cc(C)c(N4CCN(CCOC)CC4)cc3OC)n2)cc1C(=O)Nc1c(F)cccc1F [Example 241]               IC50    < 100 nM
3  CCCN1CCC(c2ccc(Nc3nccc(-c4c(-c5cccc(C(=O)Nc6c(F)cccc6F)c5)nc5ccccn45)n3)c(OC)c2)CC1 [Example 138]               IC50    < 100 nM

Each molecule below has a reported value. Please supply its IC50.
1. COc1cc(N2CCC(N3CCCCC3)CC2)c(Cl)cc1Nc1nccc(-c2c(-c3ccc(OC)c(C(=O)Nc4c(F)cccc4F)c3)nc3ccccn23)n1 [Example 105]
2. Cn1cc(-c2cccc(Nc3nccc(-c4c(-c5cccc(C(=O)Nc6c(F)cccc6F)c5)nc5ccccn45)n3)c2)cn1 [Example 11]
3. COc1cc(N2CCC(C3CCN(CCF)CC3)CC2)ccc1Nc1nccc(-c2c(-c3cccc(C(=O)Nc4c(F)cccc4F)c3)nc3ccccn23)n1 [Example 95]
4. CCOc1cc(N2CCC(CCS(C)(=O)=O)CC2)c(C)cc1Nc1nccc(-c2c(-c3ccc(OC)c(C(=O)Nc4c(F)cccc4F)c3)nc3ccccn23)n1 [Example 219]

Result:
< 100 nM
100 to 500 nM
100 to 500 nM
< 100 nM

// each listed molecule needs a value for IC50
1. COc1cc(N2CCC(N3CCN(S(C)(=O)=O)CC3)CC2)ccc1Nc1nccc(-c2c(-c3ccc(OC(C)C)c(C(=O)Nc4c(F)cccc4F)c3)nc3ccccn23)n1 [Example 227]
2. CCOc1ccc(-c2nc3ccccn3c2-c2ccnc(Nc3ccc(N4CCN(S(C)(=O)=O)CC4)cc3OC)n2)cc1C(=O)Nc1c(F)cccc1F [Example 232]
3. CCCc1cc(C2CCN(CCS(C)(=O)=O)CC2)ccc1Nc1nccc(-c2c(-c3cccc(C(=O)Nc4c(F)cccc4F)c3)nc3ccccn23)n1 [Example 166]

Result:
< 100 nM
< 100 nM
100 to 500 nM

Ask: System IR (NIH-3T3 cells over expressing human IGF-1R or IR) (Homo sapiens). Read-out IC50. Item COc1cc(N2CCC(N3CCN(CCF)CC3)CC2)ccc1Nc1nccc(-c2c(-c3cccc(C(=O)Nc4c(F)cccc4F)c3)nc3c(F)cccn23)n1 [Example 188] . Report value.
Result: 100 to 500 nM
